- experiment-notes: Solubility in saline (0.9% aqueous sodium chloride solution) at 25° C.
- Assay type: physicochemical
outcome-measure: Solubility, saline

Illustrative cases are given below, each with its answer.
INSERT INTO assay_data (compound, experimental_result) VALUES
  ('CC(C)C[C@@H](C(=O)N[C@H](C(=O)c1ccc(OCCN(C)C)cc1)C(C)(C)C)C(CCCc1ccccc1)C(=O)NO.Cl (single isomer, unassigned)', '5 mg/mL'),
  ('CC(C)C[C@@H](C(=O)N[C@@H](Cc1ccc(OS(=O)(=O)[O-])cc1)C(=O)c1ccco1)C(CN1C(=O)N(C)C(C)(C)C1=O)C(=O)NO.[Na+] (single isomer, unassigned)', '>20 mg/mL'),
  ('CC(C)C[C@@H](C(=O)N[C@@H](Cc1ccccc1)C(=O)c1ccc(OCCN(C)C)cc1)C(CCCc1ccccc1)C(=O)NO.Cl (single isomer, unassigned)', '>20 mg/mL');

For the compound shown here, CC(C)C[C@@H](C(=O)N[C@H](C(=O)c1ccc(OCCN(C)C)cc1)C(C)(C)C)C(CN1C(=O)N(C)C(C)(C)C1=O)C(=O)NO.Cl (single isomer, unassigned) , give the reported Solubility, saline. >20 mg/mL

// repeat for CC(C)C[C@@H](C(=O)N[C@@H](Cc1ccccc1)C(=O)c1ccc(OCCN(C)C)cc1)C(CN1C(=O)N(C)C(C)(C)C1=O)C(=O)NO.Cl (single isomer, unassigned) and report >20 mg/mL

// repeat for CC(C)C[C@@H](C(=O)N[C@H](C(=O)c1ccc(OCCN(C)C)cc1)C(C)(C)C)C(CN1C(=O)c2ccccc2C1=O)C(=O)NO.Cl (single isomer, unassigned) and report >20 mg/mL

* * *

- Tested on: release of TNF α from THP-1 cells
- experiment-notes: Inhibitory activity of TNF α release from THP-1 cells (LPS, ELISA)
- Type: cell-based
- condition-description: 3 hr, 37° C., TNF α by ELISA
Counter-ions that a name gives are not always drawn.
outcome-measure: pIC50
Value format note: pIC50 is -log10 of concentration (mol/L); just state the number.

INSERT INTO assay_data (molecule, experimental_result) VALUES
  ('CC(C)C[C@@H](C(=O)N[C@@H](Cc1ccc(OCCN(C)C)cc1)C(=O)c1ccco1)C(CCCc1ccccc1)C(=O)NO (single isomer, unassigned) [Example 44, hydrochloride]', 6.38);

For the molecule shown here, CC(C)C[C@@H](C(=O)N[C@@H](Cc1ccccc1)C(=O)c1ccc(OCCN(C)C)cc1)C(CCCc1ccccc1)C(=O)NO.Cl (single isomer, unassigned) [Example 35, Hydrochloride] , give the reported pIC50. 6.85

// repeat for CC(C)C[C@@H](C(=O)N[C@H](C(=O)c1ccc(OCCN(C)C)cc1)C(C)(C)C)C(CN1C(=O)c2ccccc2C1=O)C(=O)NO.Cl (single isomer, unassigned) [Example 39, Hydrochloride] and report 6.52

* * *

Reported values of solubility for individual entries
- experiment-notes: Solubility in saline (0.9% aqueous sodium chloride solution) at 25° C.
- Assay type: physicochemical
- condition-description: saline or isotonic

INSERT INTO measurements (compound, experimental_result) VALUES
  ('CC(C)C[C@@H](C(=O)N[C@@H](Cc1ccc(S(=O)(=O)[O-])cc1)C(=O)c1ccco1)C(Cc1cccc2ccccc12)C(=O)NO.[Na+] (single isomer, unassigned)', '> 20 mg/mL'),
  ('CC(C)C[C@@H](C(=O)N[C@@H](Cc1ccc(S(=O)(=O)[O-])cc1)C(=O)c1ccco1)C(CN1Cc2ccccc2C1=O)C(=O)NO.[Na+] (single isomer, unassigned)', '> 20 mg/mL'),
  ('CC(C)C[C@@H](C(=O)N[C@@H](Cc1ccc(S(=O)(=O)[O-])cc1)C(=O)c1ccco1)C(CN1C(=O)c2ccccc2C1=O)C(=O)NO.[Na+] (single isomer, unassigned)', '10 mg/mL');

Shift focus to the following entry.
For the compound shown here, CC(C)C[C@@H](C(=O)N[C@@H](Cc1ccc(S(=O)(=O)[O-])cc1)C(=O)c1ccco1)C(Cc1ccc2ccccc2c1)C(=O)NO.[Na+] (single isomer, unassigned) , give the reported solubility. > 20 mg/mL
